Assignment: determine reported RP-LC retention time for the given compounds.
test: gradient 5% acetonitrile 3 min, to 50% in 2 min, to 85% in 15 min, held 3 min, 100 µL/min; conditions: column: Zorbax Extend-C18 2.1 x 50 mm; eluents: water / acetonitrile, 0.1% formic acid
Numbers only, in s.

[[record]]
compound = "O=C(NCCc1c[nH]c2ccccc12)c1cn(-c2ccc(F)cc2)nn1"
value_type = "RP-LC retention time"
test_value = 898

[[record]]
compound = "O=C(NC1CCCC1)C1c2cccn2CC(=O)N1c1cccc(Cl)c1 (configuration not stated)"
value_type = "RP-LC retention time"
test_value = 870

[[record]]
compound = "Cc1nc(-c2cn(C(C)C)c3ncccc23)sc1C(=O)NC1CCCC1"
value_type = "RP-LC retention time"
test_value = 1000


Hey, quick one: what's RP-LC retention time for each of these?
1. CN(CC(=O)O)c1nc2c(Cl)cc(Cl)cc2s1
2. Cc1[nH]c(C(=O)Nc2ccc(F)cc2F)c(C)c1S(=O)(=O)N1CCCCC1
3. O=C(Cc1csc2nc(-c3ccccc3)cn12)NCc1cccc(Br)c1
4. CCC(C)NC(=O)CN1CCN(C(=O)Nc2ccc(Cl)cc2)CC1=O (configuration not stated)

888
949
872
686

* * *

assay: gradient 5% acetonitrile 3 min, to 50% in 2 min, to 85% in 15 min, held 3 min, 100 µL/min; conditions: column: Zorbax Extend-C18 2.1 x 50 mm; eluents: water / acetonitrile, 0.1% formic acid
Grouping rule (RP-LC retention time): bin 1 = under 700 s, bin 2 = from 700 s up to 900 s, bin 3 = 900 s and over

[[record]]
compound = "C=CCN(CC=C)c1nc(-c2ccc(Cl)cc2)nc2ccccc12"
label_class = "bin 3"

[[record]]
compound = "OC[C@@H]1CNC[C@H]1C1CCN(Cc2ccc(OC(F)(F)F)cc2)CC1"
label_class = "bin 1"

[[record]]
compound = "COc1ccc(NC(=O)Nc2nc(CCC(=O)O)cs2)cc1"
label_class = "bin 1"

[[record]]
compound = "Cc1ccc(CNC(=O)C2CCN(C(=O)c3ncn4c3COC(c3ccc(Cl)cc3)C4)CC2)cc1 (stereo not given)"
label_class = "bin 2"

[[record]]
compound = "C=CCn1c(=O)c2ccccc2n(Cc2nc(-c3cccc(C(F)(F)F)c3)no2)c1=O"
label_class = "bin 3"

[[record]]
compound = "COc1ccccc1N1CCN(CCCCNC(=O)c2ccc3ccccc3c2)CC1"
label_class = "bin 1"

[[record]]
compound = "CCCNC(=O)Cc1c(C)nn(-c2nc(-c3ccc(C)cc3)cs2)c1C"
label_class = "bin 3"

[[record]]
compound = "COc1ccccc1C(=O)N1CCCC1c1cc(C)on1 (stereo not given)"
label_class = "bin 2"


Dear colleague, I would appreciate it if you could identify the bin for `O=C(Cn1cccc1-c1nc(-c2ccc3c(c2)OCO3)no1)Nc1ccc(F)c(F)c1` and reply at your convenience.
bin 3

Dear colleague, I would appreciate it if you could identify the bin for `CCSc1nnc(NC(=O)Cn2cnc(C(C)C)cc2=O)s1` and reply at your convenience.
bin 1

Dear colleague, I would appreciate it if you could identify the bin for `O=C(C1CC1)N1CCc2sc(S(=O)(=O)Nc3ccccc3Br)cc2C1` and reply at your convenience.
bin 2

Dear colleague, I would appreciate it if you could identify the bin for `Cc1cc(C)c(C(=O)N2CCC(CC(=O)NCCCN3CCCC3)CC2)[nH]1` and reply at your convenience.
bin 1

Dear colleague, I would appreciate it if you could identify the bin for `C=CCN1C(=O)COc2ccc(-c3csc(NC(=O)C4CC4)n3)cc21` and reply at your convenience.
bin 2

Dear colleague, I would appreciate it if you could identify the bin for Cc1ncoc1C(=O)N1CCC(F)(F)C(COCC2CC2)C1 (stereo not given) and reply at your convenience.
bin 2

Dear colleague, I would appreciate it if you could identify the bin for `COc1cc(CCC(=O)N2CCC3(CC2)NCc2ccccc2-n2ccnc23)on1` and reply at your convenience.
bin 1
